Molecular target: human CD3 (human, UniProt P07766 23-207; P04234 22-171; P09693 23-182)
Sequence (P07766 23-207, chain 1 of 3): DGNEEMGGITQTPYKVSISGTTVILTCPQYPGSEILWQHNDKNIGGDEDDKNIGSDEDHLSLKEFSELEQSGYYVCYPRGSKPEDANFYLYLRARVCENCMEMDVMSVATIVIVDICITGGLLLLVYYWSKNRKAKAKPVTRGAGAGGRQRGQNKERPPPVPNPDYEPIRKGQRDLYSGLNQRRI
Sequence (P04234 22-171, chain 2 of 3): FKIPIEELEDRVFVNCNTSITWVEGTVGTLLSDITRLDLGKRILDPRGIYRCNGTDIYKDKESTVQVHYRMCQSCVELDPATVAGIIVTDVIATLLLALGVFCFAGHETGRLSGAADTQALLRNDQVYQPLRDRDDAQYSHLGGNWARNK
Sequence (P09693 23-182, chain 3 of 3): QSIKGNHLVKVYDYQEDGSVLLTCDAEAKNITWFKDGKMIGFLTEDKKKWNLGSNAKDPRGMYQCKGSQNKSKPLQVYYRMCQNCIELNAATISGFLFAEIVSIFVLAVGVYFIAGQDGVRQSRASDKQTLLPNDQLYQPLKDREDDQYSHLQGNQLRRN
Test: cell-based or functional assay
observedProperty: CD4 EC50 (nM); CD69/CD25 on human T cells, plate-coated antibody

{"columns": ["binder", "recordedValue"],
 "data": [
  ["mAb 172 (antibody, V domains shown) V domain 1: EVQLVESGGGLVQPGRSLRLSCTTSGFTFDDYTMHWVRQVPGKGLEWVSDISWNSGSVGYADSVKGRFTISRDNAKNSLYLQMNSLRAEDTALYYCVKDSSGYGHYFHYYMDVWGKGTTVTVSS V domain 2: EVQLVESGGGLVQPGRSLRLSCTTSGFTFDDYTMHWVRQVPGKGLEWVSDISWNSGSVGYADSVKGRFTISRDNAKNSLYLQMNSLRAEDTALYYCVKDSSGYGHYFHYYMDVWGKGTTVTVSS", "23.2 nM"],
  ["mAb 167 (antibody, V domains shown) VH: EVHLVESGGGLVQPGRSLRLSCAASGFTFDDYAMHWVRQAPGKGLEWVSGISWNSGTIGYADSVKGRFTISRDNAKNSLYLEMNSLRAEDTALYYCAKDSSGYGHYYHYYIDVWGTGTTVTVSS VL: EIVMTQSPATLSVSPGGRATLSCRASQSVGSNLAWYQQKPGQAPRLLIYDASTRATGIPARFRGSGSGTEFTLTISGLQSEDFAVYYCQLYYNWPHFGQGTRLEIK", "6.3 nM"]
]}

meta.source: patent US20230295310A1
